Cited source for all entries: patent US20200223889A1

molecular target: human MC4R (Homo sapiens, UniProt P32245); construct: expressed in transfected cells; experiment: Functional cAMP assay (CisBio HTRF) in BHK cells expressing human MC4R; format: cell-based; settings: MC1R cAMP EC50 divided by MC4R cAMP EC50
Sequence (P32245 whole entry): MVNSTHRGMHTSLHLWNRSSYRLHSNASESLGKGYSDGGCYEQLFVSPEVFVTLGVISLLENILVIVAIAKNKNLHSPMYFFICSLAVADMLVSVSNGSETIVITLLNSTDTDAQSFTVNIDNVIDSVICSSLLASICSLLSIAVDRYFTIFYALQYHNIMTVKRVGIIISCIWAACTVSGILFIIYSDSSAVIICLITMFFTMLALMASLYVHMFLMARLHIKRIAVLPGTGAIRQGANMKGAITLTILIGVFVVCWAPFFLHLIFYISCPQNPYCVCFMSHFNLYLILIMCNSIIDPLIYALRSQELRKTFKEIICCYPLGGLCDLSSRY
Starred links: 1 amine or outer side, 2 acyl side, 3 side chain; linkers in the order of their positions; H or OH if unused. Positions of bridges follow the written chain, without caps; N, C: chain ends. Non-standard residues stand in square brackets, D forms with d. Residues, ends and D or L forms follow the SMILES beside them. Hyp = O=C(O)[C@@H]1C[C@@H](O)CN1; Dab = NCC[C@H](N)C(=O)O; Aib = CC(C)(N)C(=O)O; CH2 = C([*:1])[*:2]
OBSERVABLE: MC1R/MC4R cAMP EC50 ratio

Example cases with answers are listed next.
COMPOUND: C[C@@H]1NC(=O)[C@@H]2CSSC[C@H](NC(=O)[C@H](Cc3c[nH]c4ccccc34)NC(=O)[C@H](CCC(N)=O)NC(=O)[C@@H](Cc3ccccc3)NC(=O)[C@H](Cc3c[nH]cn3)NC1=O)C(=O)N[C@@H](C)C(=O)N[C@@H](CCCCN)C(=O)N[C@H](CCCCN)C(=O)N[C@@H](CCCCN)C(=O)N[C@@H](Cc1c[nH]c3ccccc13)C(=O)N2 [Chem. 57] (cyclo(AH[dF]QWCAK[dK]KWC); disulfide 6-12)
OBSERVABLE: MC1R/MC4R cAMP EC50 ratio
MEAS_VALUE: 55
--
COMPOUND: CC1(C)NC(=O)[C@@H]2CSSC[C@H](NC(=O)[C@H](Cc3c[nH]c4ccccc34)NC(=O)[C@H](CCN)NC(=O)[C@@H](Cc3ccccc3)NC(=O)[C@H](Cc3c[nH]cn3)NC1=O)C(=O)NC(C)(C)C(=O)N[C@@H](Cc1c[nH]cn1)C(=O)N[C@H](Cc1ccccc1)C(=O)N[C@@H](CCN)C(=O)N[C@@H](Cc1c[nH]c3ccccc13)C(=O)N2 [Chem. 46] (cyclo([Aib]H[dF][Dab]WC[Aib]H[dF][Dab]WC); disulfide 6-12)
OBSERVABLE: MC1R/MC4R cAMP EC50 ratio
MEAS_VALUE: >1

Alright, here's another compound for you.
Record lookup: for human MC4R (Homo sapiens, UniProt P32245), what MC1R/MC4R cAMP EC50 ratio belongs to C[C@@H]1NC(=O)[C@@H]2CSCSC[C@H](NC(=O)[C@H](Cc3c[nH]c4ccccc34)NC(=O)[C@H](CCCNC(=N)N)NC(=O)[C@@H](Cc3ccccc3)NC(=O)[C@@H]3C[C@@H](O)CN3C1=O)C(=O)N[C@@H](C)C(=O)N1C[C@H](O)C[C@H]1C(=O)N[C@H](Cc1ccccc1)C(=O)N[C@@H](CCCNC(=N)N)C(=O)N[C@@H](Cc1c[nH]c3ccccc13)C(=O)N2 [Chem. 23] (cyclo(A[Hyp][dF]RWCA[Hyp][dF]RWC); linker 6-12 via CH2) ?
>3

----------
target: human MC4R (Homo sapiens, UniProt P32245); construct: expressed in transfected cells; experiment: Functional cAMP assay (CisBio HTRF) in BHK cells expressing human MC4R; assay type: cell-based; settings: MC1R cAMP EC50 divided by MC4R cAMP EC50
Positions of bridges follow the written chain, without caps; N, C: chain ends. Non-standard residues stand in square brackets, D forms with d. Residues, ends and D or L forms follow the SMILES beside them. Hyp = O=C(O)[C@@H]1C[C@@H](O)CN1
OBSERVABLE: MC1R/MC4R cAMP EC50 ratio
Answer with a bare number; do not write a unit.

Which MC1R/MC4R cAMP EC50 ratio reading was recorded for the compound N=C(N)NCCC[C@@H]1NC(=O)[C@@H](Cc2ccccc2)NC(=O)[C@H](Cc2c[nH]cn2)NC(=O)[C@@H]2C[C@@H](O)CN2C(=O)[C@@H]2CSSC[C@H](NC(=O)[C@H](Cc3c[nH]c4ccccc34)NC1=O)C(=O)N1C[C@H](O)C[C@H]1C(=O)N[C@@H](Cc1c[nH]cn1)C(=O)N[C@H](Cc1ccccc1)C(=O)N[C@@H](CCCNC(=N)N)C(=O)N[C@@H](Cc1c[nH]c3ccccc13)C(=O)N2 [Chem. 32] (cyclo(C[Hyp]H[dF]RWC[Hyp]H[dF]RW); disulfide 1-7) ?
17
